Molecular target: T1, human GPC3 on cells (human, UniProt P51654 25-554)
T1 construct: whole, on cells; over-expressed on CHOK1 cells or endogenous on HEPG2, Hep3B and Huh-7 hepatocellular carcinoma cells; the cell line is named under assay; also called GPC3-CHOK1 cells; human GPC3 over-expressed CHOK1 cells
Test: FACS, GPC3-CHOK1 cells
We begin with a simple list: items and their reported EC50.
Reply numerically in µg/mL, unit not repeated.

Recorded results for 3 binders are shown here.
52H5D3B8-6#-VH3+VL1 (antibody, V domains shown, humanized) VH: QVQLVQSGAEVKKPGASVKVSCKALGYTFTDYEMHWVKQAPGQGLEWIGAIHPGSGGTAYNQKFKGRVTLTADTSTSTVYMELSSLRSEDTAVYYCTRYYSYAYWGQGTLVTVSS VL: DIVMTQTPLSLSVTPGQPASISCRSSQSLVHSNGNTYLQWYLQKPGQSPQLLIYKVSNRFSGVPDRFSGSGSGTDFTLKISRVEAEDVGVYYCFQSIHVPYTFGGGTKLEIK	0.0373
52H5D3B8-6#-VH1+VL2 (antibody, V domains shown, humanized) VH: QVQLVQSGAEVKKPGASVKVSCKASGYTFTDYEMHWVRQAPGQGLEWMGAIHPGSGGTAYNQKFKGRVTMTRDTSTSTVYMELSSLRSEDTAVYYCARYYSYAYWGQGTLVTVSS VL: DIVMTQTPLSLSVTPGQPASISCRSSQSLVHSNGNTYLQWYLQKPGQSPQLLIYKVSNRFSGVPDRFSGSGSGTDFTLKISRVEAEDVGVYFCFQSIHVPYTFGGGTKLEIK	0.0388
52H5D3B8-6#-VH2+VL4 (antibody, V domains shown, humanized) VH: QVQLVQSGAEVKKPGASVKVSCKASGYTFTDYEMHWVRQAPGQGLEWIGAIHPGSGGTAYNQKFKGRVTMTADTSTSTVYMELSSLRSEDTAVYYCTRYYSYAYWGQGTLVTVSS VL: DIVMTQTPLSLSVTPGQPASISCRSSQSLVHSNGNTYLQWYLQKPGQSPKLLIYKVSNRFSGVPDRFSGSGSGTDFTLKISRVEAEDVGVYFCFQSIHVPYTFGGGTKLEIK	0.041

Per the records, this binder ( 52H5D3B8-6#-VH1+VL1 (antibody, V domains shown, humanized) VH: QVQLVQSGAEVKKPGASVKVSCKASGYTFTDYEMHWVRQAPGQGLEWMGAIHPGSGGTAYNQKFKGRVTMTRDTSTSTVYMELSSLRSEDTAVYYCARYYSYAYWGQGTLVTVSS VL: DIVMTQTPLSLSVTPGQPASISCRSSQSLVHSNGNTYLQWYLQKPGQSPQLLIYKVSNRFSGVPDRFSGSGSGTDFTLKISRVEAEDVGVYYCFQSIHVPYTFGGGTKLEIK ) has EC50 equal to 0.038

Per the records, this binder ( 52H5D3B8-6#-VH2+VL1 (antibody, V domains shown, humanized) VH: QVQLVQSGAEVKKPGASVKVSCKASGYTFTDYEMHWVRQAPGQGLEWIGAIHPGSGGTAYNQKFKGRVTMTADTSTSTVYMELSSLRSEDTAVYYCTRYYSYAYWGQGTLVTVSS VL: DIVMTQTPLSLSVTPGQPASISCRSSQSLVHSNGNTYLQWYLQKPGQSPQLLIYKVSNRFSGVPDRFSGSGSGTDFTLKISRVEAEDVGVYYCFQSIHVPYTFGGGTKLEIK ) has EC50 equal to 0.0384
